Molecular target: T1, Human IL-11 (human, UniProt P20809 22-199); also: test concentration or dose not given here
T1 sequence: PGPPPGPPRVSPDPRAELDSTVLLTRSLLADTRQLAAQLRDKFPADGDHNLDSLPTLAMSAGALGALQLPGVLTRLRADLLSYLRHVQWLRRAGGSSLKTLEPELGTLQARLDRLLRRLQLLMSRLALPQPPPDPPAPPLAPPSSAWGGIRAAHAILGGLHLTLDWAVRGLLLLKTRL
Assay: cell-based or functional assay
Form field: MMP2 production, Experiment 1 (human atrial fibroblasts + TGFB1) (one value per entry).
result.type: MMP2 production, Experiment 1 (human atrial fibroblasts + TGFB1)

• YU100-B03 (antibody) QVQLVQSGGGVVQPGRSLRLSCAASGFTFSSYGMHWVRQAPGKGLEWVAVISYDGSNKYYADSVKGRFTISRDNSKNTLYLQMNSLRAEDTAVYYCAKIGATDPLDYWGQGTLVTVSSGSASAPKLEEGEFSEARVQSVLTQPRSVSGSPGRSVTISCTGTSSDVGGYNYVSWYQQHPGKAPKLTLYDVVKRPSGVPDRYSGSKSGNTASLTISGLQAEDEADYYCCSYAGGYTWVFGGGTKVTVV = 47.3 ng/mL
• YU100-G07 (antibody) QVQLVESGGGVVQPGRSLRLSCAASGFTFSSYGMHWVRQAPGKGLEWVAVISYDGSNKYYADSVKGRFTISRDNSKNTLYLQMNSLRAEDTAVYYCAKIGATDPLDYWGQGTLVTVSSGSASAPKLEEGEFSEARVQSALTQPASVSGSPGQSITISCTGTSSDVGAYDYVSWYQQHPGKAPKLMIYDVTNRPSGVSNRFSGSKSGNTASLTISGLQAEDEADYYCASYTRSSVWVFGGGTKLTVL = 59 ng/mL
• YU100-B08 (antibody) EVQLVQSGGGVVQPGRSLRLSCAASGFTFSSYGMHWVRQAPGKGLEWVAVISYDGSNKYYADSVKGRFTISRDNSKNTLYLQMNSLRAEDTAVYYCAKIGATDPLDYWGQGTLVTVSSGSASAPKLEEGEFSEARVQSALTQPASVSGSPGQSITISCTGTSSDVGGYNYVSWYQQHPGKVPRLLIYDVSNRPSGVSTRFSGSKSGNTASLTISGLQGEDEAEYYCSSFTSSTTWVFGGGTKLTVL = 55.3 ng/mL
